Documented EC50 across a set of compounds
- Test system: Influenza type A (strain A/PR/8/34, ATCC VR-95)
- experimentDescription: Influenza antiviral assay: inhibition of virus-induced cytopathic effects (CPE) in MDCK cells, XTT dye reduction
- Format: cell-based
- settings: Influenza A virus, H1N1 / PR/8, MDCK, 96 h, Influenza A (H1N1) replication in MDCK cells, CPE reduction by XTT at 4 days post-infection; read-out: Influenza H1N1 affinity, EC50

compound	EC50
COc1ccc2c(c1)C(Nn1ccc(=O)c(O)c1C(=O)O)c1ccccc1CS2 (centres unmarked)	> 100 µM
O=C(Nc1cccc2ccccc12)c1c(O)c(=O)ccn1NC1c2ccccc2COc2ccccc21 (centres unmarked)	> 100 µM
O=c1ccn(NC2CCOCc3ccccc32)cc1O (centres unmarked)	> 100 µM
O=C(Nc1ccc2ccccc2c1)c1c(O)c(=O)ccn1NC1c2ccccc2COc2ccccc21 (centres unmarked)	> 100 µM
O=C(O)c1c(O)c(=O)ccn1NC1c2ccc(-c3ccccc3)cc2SCc2c1ccc(F)c2F (centres unmarked)	10 to 100 µM
NC(=O)c1c(O)c(=O)ccn1NC1c2ccccc2SCc2c1ccc(F)c2F (centres unmarked)	1 to 10 µM

For CN(C(c1ccccc1)c1ccccc1)n1ccc(=O)c(O)c1 , what is its reported EC50?
> 100 µM

For CN(C1c2ccccc2COc2ccccc21)n1ccc(=O)c(O)c1C(=O)NCc1ccccc1 (centres unmarked) , what is its reported EC50?
> 100 µM

For COC(=O)c1c(O)c(=O)ccn1N(Cc1ccccc1)C1c2ccccc2COc2ccccc21 (centres unmarked) , what is its reported EC50?
> 100 µM

For CNC(=O)c1cn(NC2c3ccccc3COc3ccccc32)c(C(=O)NC)c(O)c1=O (centres unmarked) , what is its reported EC50?
> 100 µM

For O=C(O)c1c(O)c(=O)ccn1NC(c1ccc(F)c(F)c1)c1ccc(F)c(F)c1 , what is its reported EC50?
> 100 µM

For O=C(O)c1c(O)c(=O)ccn1NC1c2cc(F)c(F)cc2CSc2ccccc21 (centres unmarked) , what is its reported EC50?
1 to 10 µM

For O=C(NO)c1c(O)c(=O)ccn1NC1c2ccccc2SCc2c1ccc(F)c2F (centres unmarked) , what is its reported EC50?
1 to 10 µM

---

- Test system: Influenza type A (strain A/PR/8/34, ATCC VR-95)
- experimentDescription: Influenza antiviral assay: inhibition of virus-induced cytopathic effects (CPE) in MDCK cells, XTT dye reduction
- Format: cell-based
- settings: Influenza A virus, H1N1 / PR/8, MDCK, 96 h, Influenza A (H1N1) replication in MDCK cells, CPE reduction by XTT at 4 days post-infection; read-out: Influenza H1N1 affinity, EC50
pEC50: −log10 of the molar value.
Documented pEC50 across a set of molecules

Some entries whose results are on file:
molecule	pEC50
O=C(O)c1c(O)c(=O)ccn1NC1c2ccc(-c3ccc(F)cc3)cc2SCc2c1ccc(F)c2F (centres unmarked)	4.00 to 5.00
O=C(O)c1c(O)c(=O)ccn1NC1c2ccccc2SCc2c1cccc2N1CCCC1=O (centres unmarked)	5.00 to 6.00
CNC(=O)c1c(O)c(=O)ccn1NC1c2ccccc2OCc2c(F)cccc21 (centres unmarked)	< 4.00

For O=C(O)c1c(O)c(=O)ccn1NC1c2ccccc2CSc2ccccc21 (centres unmarked) , what is its reported pEC50?
4.00 to 5.00

For O=C(NCc1cccc(O)c1)c1c(O)c(=O)ccn1NC1c2ccccc2COc2ccccc21 (centres unmarked) , what is its reported pEC50?
< 4.00

For O=C(Nc1cccc(O)c1)c1c(O)c(=O)ccn1NC1c2ccccc2COc2ccccc21 (centres unmarked) , what is its reported pEC50?
< 4.00

For O=C(NCc1ccccc1)c1c(O)c(=O)ccn1CC1c2ccccc2COc2ccccc21 (centres unmarked) , what is its reported pEC50?
< 4.00

---

- Test system: Influenza type A (strain A/PR/8/34, ATCC VR-95)
- experimentDescription: Influenza antiviral assay: inhibition of virus-induced cytopathic effects (CPE) in MDCK cells, XTT dye reduction
- Format: cell-based
- settings: Influenza A virus, H1N1 / PR/8, MDCK, 96 h, Influenza A (H1N1) replication in MDCK cells, CPE reduction by XTT at 4 days post-infection; read-out: Influenza H1N1 affinity, EC50
pEC50: −log10 of the molar value.
quantityKind: pEC50

compound	observed
O=C(O)c1c(O)c(=O)ccn1NC1c2ccc(F)c(F)c2CSc2c1ccc(F)c2F (stereo not shown)	5.00 to 6.00
CNC(=O)c1c(O)c(=O)ccn1NC(c1cccc2ccccc12)c1cccc2ccccc12	< 4.00
COC(=O)c1c(O)c(=O)ccn1NC1CCCN(Cc2ccc(OC)cc2)c2ccccc21 (stereo not shown)	< 4.00

Now examine the next entry.
For O=C(O)c1c(O)c(=O)ccn1NC1c2ccccc2SCc2c1ccc(Cl)c2Cl (stereo not shown) , what is its reported pEC50?
6.00 to 7.00

---

Documented EC50 across a set of molecules
- System: Influenza type A (strain A/PR/8/34, ATCC VR-95)
- experimentDescription: Influenza antiviral assay: inhibition of virus-induced cytopathic effects (CPE) in MDCK cells, XTT dye reduction
- Format: cell-based
- settings: Influenza A (H1N1) replication in MDCK cells, CPE reduction by XTT at 4 days post-infection; read-out: Influenza H1N1 affinity, EC50

Some entries whose results are on file:
molecule	EC50
O=C(NCC1c2ccccc2COc2ccccc21)c1c(O)c(=O)ccn1CC1c2ccccc2COc2ccccc21 (stereo not drawn) [Compound 50]	1 to 10 µM
O=C(NCC1c2ccccc2COc2ccccc21)c1c(O)c(=O)ccn1CC1c2ccccc2COc2ccccc21 (stereo not drawn) [Compound 102]	> 100 µM

Form field: EC50 recorded for O=C(NCC1c2ccccc2COc2ccccc21)c1c(O)c(=O)ccn1CC1c2ccccc2COc2ccccc21 (stereo not drawn) [Compound 108] with Influenza type A (strain A/PR/8/34, ATCC VR-95) (enter value)
1 to 10 µM

---

- System: Influenza type A (strain A/PR/8/34, ATCC VR-95)
- experimentDescription: Influenza antiviral assay: inhibition of virus-induced cytopathic effects (CPE) in MDCK cells, XTT dye reduction
- Type: cell-based
- settings: Influenza A virus, H1N1 / PR/8, MDCK, 96 h, Influenza A (H1N1) replication in MDCK cells, CPE reduction by XTT at 4 days post-infection; read-out: Influenza H1N1 affinity, EC50
pEC50: −log10 of the molar value.
quantityKind: pEC50

Some entries whose results are on file:
compound	quantityKind	observed
O=C(NCCOCCO)c1c(O)c(=O)ccn1NC1CCCN(Cc2ccccc2)c2ccccc21 (stereo not shown) [Compound 17]	pEC50	< 4.00
CNC(=O)c1c(O)c(=O)ccn1NC1c2ccccc2CSc2cc(F)c(F)cc21 (stereo not shown) [Compound 78]	pEC50	5.00 to 6.00
O=C(O)c1c(O)c(=O)ccn1NC1c2ccccc2COc2cc(Cl)c(Cl)cc21 (stereo not shown) [Compound 60]	pEC50	4.00 to 5.00
CCOC(=O)c1cn(NC2c3ccccc3COc3ccccc32)c(C(=O)OCC)c(O)c1=O (stereo not shown) [Compound 104]	pEC50	< 4.00
O=C(O)c1c(O)c(=O)ccn1NC(c1ccc2ccccc2c1)c1ccc2ccccc2c1 [Compound 100]	pEC50	< 4.00

For O=C(NOCc1ccccc1)c1c(O)c(=O)ccn1NC1c2ccccc2SCc2c1ccc(F)c2F (stereo not shown) [Compound 130] , what is its reported pEC50?
5.00 to 6.00

For O=C(O)c1cn(CC2c3ccccc3COc3ccccc32)c(C(=O)O)c(O)c1=O (stereo not shown) [Compound 73] , what is its reported pEC50?
< 4.00

For O=c1ccn(NC2c3ccccc3SCc3c2ccc(F)c3F)cc1O (stereo not shown) [Compound 43] , what is its reported pEC50?
< 4.00

For O=C(O)c1c(O)c(=O)ccn1NC(c1ccccc1)c1cccc2ccccc12 (stereo not shown) [Compound 112] , what is its reported pEC50?
4.00 to 5.00

---

- System: Influenza type A (strain A/PR/8/34, ATCC VR-95)
- experimentDescription: Influenza antiviral assay: inhibition of virus-induced cytopathic effects (CPE) in MDCK cells, XTT dye reduction
- Assay type: cell-based
- settings: Influenza A virus, H1N1 / PR/8, MDCK, 96 h, Influenza A (H1N1) replication in MDCK cells, CPE reduction by XTT at 4 days post-infection; read-out: Influenza H1N1 affinity, EC50
pEC50: −log10 of the molar value.
quantityKind: pEC50

Some entries whose results are on file:
molecule	pEC50
CNC(=O)c1c(O)c(=O)ccn1NC1CCN(Cc2ccccc2)c2ccccc21 (stereo not shown)	< 4.00
CC(C)c1ccc2c(c1)C(Nn1ccc(=O)c(O)c1C(=O)O)c1ccc(F)c(F)c1CS2 (stereo not shown)	< 4.00
O=C(O)c1c(O)c(=O)ccn1NC1c2ccc(F)c(F)c2COc2c1ccc(F)c2F (stereo not shown)	5.00 to 6.00

Now examine the next entry.
For O=C(O)c1c(O)c(=O)ccn1NC1c2ccccc2SCc2c1ccc(F)c2Br (stereo not shown) , what is its reported pEC50?
6.00 to 7.00
